# Test system: PPARg:RXRa 30nM:10nM, anti-RXR (NR concentration 30 nM, RXRa partner concentration 10 nM)
# ASSAY_COMMENT: PBM binding z-score (relative to random genomic background probes); higher = stronger binding; sequences stand for … in GC…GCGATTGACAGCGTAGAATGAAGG

{"columns": ["SEQUENCE_DATA", "SYSTEM_TESTED", "PBM binding z-score"],
 "data": [
  ["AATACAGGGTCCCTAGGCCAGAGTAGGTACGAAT", "PPARg:RXRa 30nM:10nM, anti-RXR (NR concentration 30 nM, RXRa partner concentration 10 nM)", 0.133],
  ["CGTCCAGGGTCAGAGAGGTCAGTGAATGCCGAGT", "PPARg:RXRa 30nM:10nM, anti-RXR (NR concentration 30 nM, RXRa partner concentration 10 nM)", 1.19],
  ["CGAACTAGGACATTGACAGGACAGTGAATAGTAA", "PPARg:RXRa 30nM:10nM, anti-RXR (NR concentration 30 nM, RXRa partner concentration 10 nM)", 0.384],
  ["CATACTAGGTCAAGGTCAAAGTCGGTTTGTGCCA", "PPARg:RXRa 30nM:10nM, anti-RXR (NR concentration 30 nM, RXRa partner concentration 10 nM)", 5.63]
]}

* * *

# Test system: FXR:RXRa (NR concentration 270 nM, RXRa partner concentration 90 nM)
# ASSAY_COMMENT: PBM binding z-score (relative to random genomic background probes); higher = stronger binding; sequences stand for … in GC…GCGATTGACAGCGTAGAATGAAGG
As shown below, each of these sequences has a reported PBM binding z-score value.

{"columns": ["SEQUENCE_DATA", "SYSTEM_TESTED", "PBM binding z-score"],
 "data": [
  ["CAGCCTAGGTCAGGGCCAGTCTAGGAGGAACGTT", "FXR:RXRa (NR concentration 270 nM, RXRa partner concentration 90 nM)", 1.43],
  ["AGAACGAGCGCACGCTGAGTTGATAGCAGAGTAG", "FXR:RXRa (NR concentration 270 nM, RXRa partner concentration 90 nM)", -0.57],
  ["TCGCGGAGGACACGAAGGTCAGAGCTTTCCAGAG", "FXR:RXRa (NR concentration 270 nM, RXRa partner concentration 90 nM)", 0.923]
]}

* * *

# Tested on: PPARg:RXRa 30nM:10nM, anti-RXR (NR concentration 30 nM, RXRa partner concentration 10 nM)
# ASSAY_COMMENT: PBM binding z-score (relative to random genomic background probes); higher = stronger binding; sequences stand for … in GC…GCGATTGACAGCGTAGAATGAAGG
MEASURED_ENDPOINT: PBM binding z-score

{"columns": ["SEQUENCE_DATA", "MEASURED_ENDPOINT", "OBSERVED_MEASUREMENT"],
 "data": [
  ["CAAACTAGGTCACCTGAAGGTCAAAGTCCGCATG", "PBM binding z-score", 5.48],
  ["TCTTGTAGATCAATAGAGCTTAAGAAAGTGCGCT", "PBM binding z-score", 2.31],
  ["TGTCAAAGTTCAAAAGTAACGTAAGTATCCACAC", "PBM binding z-score", 4.65],
  ["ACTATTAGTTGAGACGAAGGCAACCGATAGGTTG", "PBM binding z-score", -0.441],
  ["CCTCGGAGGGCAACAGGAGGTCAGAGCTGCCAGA", "PBM binding z-score", -0.587],
  ["TTATATAGGTAAACAGGTGAAAGTCCGTAAGTTA", "PBM binding z-score", 2.93],
  ["CCTACTGGGCCACGGAAGGTCATTGATTCAGTGA", "PBM binding z-score", 1.05],
  ["CAAACTAGGTCAGGAAAGGTCAAAGTCGAATGAC", "PBM binding z-score", 4.45],
  ["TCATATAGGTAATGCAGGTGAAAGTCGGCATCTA", "PBM binding z-score", 3.86],
  ["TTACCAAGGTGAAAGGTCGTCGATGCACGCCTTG", "PBM binding z-score", 7.23],
  ["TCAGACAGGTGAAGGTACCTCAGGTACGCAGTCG", "PBM binding z-score", 3.41],
  ["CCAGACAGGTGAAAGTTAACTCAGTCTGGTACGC", "PBM binding z-score", 1.99],
  ["AGAATGAGGTTAAGATCCGGGAAACAGAATACAT", "PBM binding z-score", 0.812],
  ["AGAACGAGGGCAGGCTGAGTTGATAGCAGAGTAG", "PBM binding z-score", -0.189],
  ["TCTAGTAGATCAGCAGGTTAAGAAAGCTGGCCAA", "PBM binding z-score", 2.66],
  ["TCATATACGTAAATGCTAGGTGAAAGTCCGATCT", "PBM binding z-score", 3.51],
  ["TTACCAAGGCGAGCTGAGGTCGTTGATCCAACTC", "PBM binding z-score", -0.31],
  ["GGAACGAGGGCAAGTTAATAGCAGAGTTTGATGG", "PBM binding z-score", 0.37],
  ["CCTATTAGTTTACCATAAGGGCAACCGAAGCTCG", "PBM binding z-score", 0.33],
  ["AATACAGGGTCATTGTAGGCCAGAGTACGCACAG", "PBM binding z-score", 2.4],
  ["CAAACTAGGTCACCGGAAGTTCAAAGTCCGCATG", "PBM binding z-score", 5.95],
  ["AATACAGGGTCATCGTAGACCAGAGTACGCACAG", "PBM binding z-score", 2.73],
  ["CGCGAAAGGTCGTGCTCAGGTGAGTATACCAAAC", "PBM binding z-score", 0.769],
  ["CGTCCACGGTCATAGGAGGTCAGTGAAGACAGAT", "PBM binding z-score", -0.0793],
  ["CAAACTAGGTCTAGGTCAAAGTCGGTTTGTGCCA", "PBM binding z-score", 1.2],
  ["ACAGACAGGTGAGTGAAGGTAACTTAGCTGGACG", "PBM binding z-score", -0.0448],
  ["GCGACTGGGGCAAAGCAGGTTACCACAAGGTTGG", "PBM binding z-score", -0.386],
  ["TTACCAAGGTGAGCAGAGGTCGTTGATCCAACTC", "PBM binding z-score", 0.857],
  ["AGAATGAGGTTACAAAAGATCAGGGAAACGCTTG", "PBM binding z-score", 0.772]
]}
